The reported numbers originate from PubChem BioAssay AID1745844.

Tested on: rodent lifetime carcinogenesis bioassay, tumor incidence TD50
Test: carcinogenic potency in animals, long-term in vivo studies, CPDB compilation (AID 1745844)
Conditions: mouse; strain B6C3F1; females; in feed; site: Zymbal's gland; lesion: sebaceous adenocarcinoma + squamous-cell carcinoma; dosed 78 weeks; study length 95 weeks

# Structure, Assay target, TD50
rows = [
    ("[O-]/[N+](=N\\O)c1ccccc1", "rodent lifetime carcinogenesis bioassay, tumor incidence TD50", "3930 mg/kg/day"),
]

====

Test system: rodent lifetime carcinogenesis bioassay, tumor incidence TD50
Assay: carcinogenic potency in animals, long-term in vivo studies, CPDB compilation (AID 1745844)
Settings: rat; strain Fischer 344; females; by gavage; site: liver; lesion: hepatocellular adenoma; dosed 103 weeks; study length 104 weeks
Measured quantity: TD50 (mg/kg/day)

# Structure, Value units, Val
records = [
    ("c1ccoc1", "mg/kg/day", 11.8),
]

====

System: rodent lifetime carcinogenesis bioassay, tumor incidence TD50
Test: carcinogenic potency in animals, long-term in vivo studies, CPDB compilation (AID 1745844)
Details: monkey; strain Cynomolgus [Macaca fascicularis]; both sexes; several routes; site: all sites; lesion: lymphocytic lymphoma; dosed 825 weeks; study length 980 weeks

# Structure, Value units, TD50
rows = [
    ("CNNCc1ccc(C(=O)NC(C)C)cc1", "mg/kg/day", 21.1),
]

====

System: rodent lifetime carcinogenesis bioassay, tumor incidence TD50
Assay: carcinogenic potency in animals, long-term in vivo studies, CPDB compilation (AID 1745844)
Conditions: mouse; strain B6C3F1; females; inhaled; site: any site (literature study); lesion: several types; types named in the paper; dosed 104 weeks; study length 105 weeks
Activity calls are given as the source filed them. How the calls were made is not given here.
Measured quantity: TD50

# Structure, Assay target, Val
data = [
    ("O=CCCCC=O", "rodent lifetime carcinogenesis bioassay, tumor incidence TD50", "3.08 mg/kg/day (inactive)"),
]

====

Test system: rodent lifetime carcinogenesis bioassay, tumor incidence TD50
Experiment: carcinogenic potency in animals, long-term in vivo studies, CPDB compilation (AID 1745844)
Conditions: rat; strain Sprague-Dawley; males; inhaled; site: liver; lesion: several types; types named in the paper; dosed 52 weeks; study length 130 weeks

# Structure, TD50
records = [
    ("C=CCl", "294 mg/kg/day"),
]

====

Tested on: rodent lifetime carcinogenesis bioassay, tumor incidence TD50
Assay: carcinogenic potency in animals, long-term in vivo studies, CPDB compilation (AID 1745844)
Conditions: rat; strain Fischer 344; males; inhaled; site: mammary gland; lesion: adenoma, NOS + fibroadenoma; dosed 102 weeks; study length 104 weeks

# Structure, TD50
data = [
    ("ClCCl", "1640 mg/kg/day"),
]

====

Test system: rodent lifetime carcinogenesis bioassay, tumor incidence TD50
Assay: carcinogenic potency in animals, long-term in vivo studies, CPDB compilation (AID 1745844)
Details: rat; strain Charles River CD (Sprague-Dawley); both sexes; inhaled; site: nasal cavity; lesion: epidermoid carcinoma; dosed 53 weeks; study length 104 weeks

# Structure, TD50
rows = [
    ("CN(C)P(=O)(N(C)C)N(C)C", "0.0581 mg/kg/day"),
]

====

Test system: rodent lifetime carcinogenesis bioassay, tumor incidence TD50
Experiment: carcinogenic potency in animals, long-term in vivo studies, CPDB compilation (AID 1745844)
Conditions: mouse; strain B6C3F1; females; inhaled; site: uterus; lesion: adenocarcinoma, NOS; dosed 103 weeks; study length 105 weeks
Measured quantity: TD50

# Structure, Assay target, Val
data = [
    ("CCBr", "rodent lifetime carcinogenesis bioassay, tumor incidence TD50", "822 mg/kg/day"),
]
